- METHOD_SUMMARY: Cmax at the effective dose
- CONDITIONS_USED: mouse, in vivo; dose 10 ug/kg
MEASURE_NAME: Cmax (nM)
# unit: nM | format: bare number

**Query** What does the record list as Cmax for O=C1C=CC([C@@H]2O[C@H](CO)C(O)C2O)C(=O)N1Cc1noc2ccccc12 (stereo partly shown) ?
**Result** 13

These data points were gathered from patent US11124536B2.
